target: α3β4 nAChR (Rattus norvegicus, UniProt P04757+P12392); assay: biochemical; format: binding; parameters: host or cells: HEK293 (KXα3β4R2); details: α3β4 nAChR, NLC
Sequence (P04757 26-499): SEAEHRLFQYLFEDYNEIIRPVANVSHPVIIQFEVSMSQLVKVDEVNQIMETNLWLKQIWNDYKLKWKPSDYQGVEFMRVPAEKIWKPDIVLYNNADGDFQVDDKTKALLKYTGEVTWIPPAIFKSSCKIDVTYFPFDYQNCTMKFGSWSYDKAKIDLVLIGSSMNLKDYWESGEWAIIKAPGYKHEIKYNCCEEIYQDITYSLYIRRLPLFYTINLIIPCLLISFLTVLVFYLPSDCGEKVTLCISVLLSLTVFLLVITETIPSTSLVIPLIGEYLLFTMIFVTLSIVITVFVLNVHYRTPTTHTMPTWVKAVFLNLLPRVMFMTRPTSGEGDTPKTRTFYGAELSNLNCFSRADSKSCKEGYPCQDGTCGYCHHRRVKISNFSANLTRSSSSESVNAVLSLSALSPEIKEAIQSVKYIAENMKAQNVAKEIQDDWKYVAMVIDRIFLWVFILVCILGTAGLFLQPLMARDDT
Sequence (P12392 21-495): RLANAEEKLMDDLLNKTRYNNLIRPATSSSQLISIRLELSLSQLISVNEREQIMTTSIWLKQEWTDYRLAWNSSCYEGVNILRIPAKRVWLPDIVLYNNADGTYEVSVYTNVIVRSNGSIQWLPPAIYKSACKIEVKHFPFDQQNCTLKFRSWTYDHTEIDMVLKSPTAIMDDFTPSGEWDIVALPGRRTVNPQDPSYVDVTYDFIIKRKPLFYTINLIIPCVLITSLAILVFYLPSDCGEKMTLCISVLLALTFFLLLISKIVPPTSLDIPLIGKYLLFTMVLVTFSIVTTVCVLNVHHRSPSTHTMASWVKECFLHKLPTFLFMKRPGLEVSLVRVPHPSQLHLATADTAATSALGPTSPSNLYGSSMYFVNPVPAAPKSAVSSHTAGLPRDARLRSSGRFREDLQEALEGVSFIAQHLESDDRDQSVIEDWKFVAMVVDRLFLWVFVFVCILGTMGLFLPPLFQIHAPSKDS
Mark t only when koff dissociation constant rate stays strictly below 2 s⁻¹. Values equal to the cut-off are f.

Illustrative cases are given below, each with its answer.
[
  {
    "molecule": "COc1ccc(CCNCCCC(C#N)(c2ccc(OC)c(OC)c2)C(C)C)cc1OC (single isomer, unassigned) [nor-verapamil-S, nor-verapamil]",
    "label.class": "t"
  },
  {
    "molecule": "O=C(O)c1ccc([N+](=O)[O-])cc1[N+](=O)[O-] [dinitrobenzoic acid, 2,4-dinitrobenzoic acid]",
    "label.class": "f"
  },
  {
    "molecule": "CNCCCC(C#N)(c1ccc(OC)c(OC)c1)C(C)C [Compound D-617]",
    "label.class": "f"
  },
  {
    "molecule": "COc1ccc2c(c1)[C@@]13CCCC[C@H]1[C@@H](C2)NCC3 [3 MM]",
    "label.class": "t"
  },
  {
    "molecule": "COc1ccc([C@@H]2Sc3ccccc3N(CCN(C)C)C(=O)[C@@H]2OC(C)=O)cc1 [dilthiazem]",
    "label.class": "t"
  }
]

Input line: Does COc1ccc(C(C#N)(CCCN)C(C)C)cc1OC [Compound D-620] have koff dissociation constant rate strictly under 2 s⁻¹?
Output line: f

Input line: Criterion: koff dissociation constant rate strictly below 2 s⁻¹. Is it met by COc1ccc(CCN(C)CCCC(C#N)(c2cc(OC)c(OC)c(OC)c2)C(C)C)cc1OC (stereo not shown) [galapamil] ?
Output line: t

----------
target: α3β4 nAChR (Rattus norvegicus, UniProt P04757+P12392); experiment: Nicotine-stimulated 86Rb+ efflux assay, KXα3β4R2 cell line; assay type: cell-based; set-up: host or cells: HEK293 (KXα3β4R2); details: IC50, nicotine stimulated Rb+ efflux
As shown below, each of these compounds has a reported pIC50 value.
Note on pIC50: it is the negative log10 of concentration, concentration in mol/L.

[
  {
    "smi": "COc1ccc2c(c1)[C@]13CCCC[C@@H]1[C@H](C2)N(C)CC3",
    "pIC50": 5.00
  }
]

Read the next record carefully.
Input line: Please give the measured pIC50 for this compound: COc1ccc2c(c1)[C@@]13CCCC[C@H]1[C@@H](C2)N(C)CC3
Output line: 4.96

----------
target: α3β4 nAChR (Rattus norvegicus, UniProt P04757+P12392); assay: biochemical; type: binding; parameters: host or cells: HEK293 (KXα3β4R2); conditions: α3β4 nAChR
readout.type: logk′
Write the value as a bare number.

These recorded examples may help you get a feel for the data.
[
  {
    "compound": "CN(C)CCN1C(=O)[C@H](O)[C@H](c2ccc(O)cc2)Sc2ccccc21 [Compound M4]",
    "logk′": 1.45
  },
  {
    "compound": "COc1ccc(CCN(C)CCCC(C#N)(c2cc(OC)c(OC)c(OC)c2)C(C)C)cc1OC (stereo not shown) [galapamil]",
    "logk′": 1.88
  },
  {
    "compound": "COc1ccc(CCNCCCC(C#N)(c2ccc(OC)c(OC)c2)C(C)C)cc1OC (stereo not shown) [nor-verapamil]",
    "logk′": 1.99
  }
]

Consider the record given below.
Input line: Endpoint output: logk′ of CNCCN1C(=O)[C@H](O)[C@H](c2ccc(O)cc2)Sc2ccccc21 [Compound M6] . Value?
Output line: 1.48
